# test_system: human ferroportin (Homo sapiens, UniProt Q9NP59)
# Sequence (Q9NP59 whole entry): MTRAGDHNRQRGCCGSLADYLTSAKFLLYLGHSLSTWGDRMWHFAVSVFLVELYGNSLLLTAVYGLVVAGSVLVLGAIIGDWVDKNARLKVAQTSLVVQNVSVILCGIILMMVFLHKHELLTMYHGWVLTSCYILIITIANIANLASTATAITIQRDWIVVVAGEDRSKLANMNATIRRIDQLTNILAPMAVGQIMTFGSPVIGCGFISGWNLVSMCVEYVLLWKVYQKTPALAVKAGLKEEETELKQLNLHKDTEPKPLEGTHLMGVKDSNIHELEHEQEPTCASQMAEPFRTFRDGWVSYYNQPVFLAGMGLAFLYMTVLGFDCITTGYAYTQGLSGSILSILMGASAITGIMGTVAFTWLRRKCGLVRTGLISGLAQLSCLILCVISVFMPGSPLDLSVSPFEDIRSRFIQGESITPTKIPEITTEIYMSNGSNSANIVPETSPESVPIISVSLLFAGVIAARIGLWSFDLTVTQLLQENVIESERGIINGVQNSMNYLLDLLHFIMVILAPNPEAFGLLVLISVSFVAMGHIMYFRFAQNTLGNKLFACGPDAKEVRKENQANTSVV
# procedure_text: ferroportin internalization assay (inhibition of hepcidin-induced internalization of Fpn)
# conditions: MDCK-FPN-HaloTag cells, 100 nM hepcidin, overnight incubation; concentration range from 0.04 to 40 μM
pIC50: −log10 of the molar value.
Reported pIC50 values follow for various compounds

{"compound": "N#Cc1ccc2c(c1)-c1ccc3cccnc3c1NS2(=O)=O", "test_system": "human ferroportin (Homo sapiens, UniProt Q9NP59)", "pIC50": 5.55}
{"compound": "O=S(=O)(Nc1cccc2cccnc12)c1ccc(C(F)(F)F)cc1", "test_system": "human ferroportin (Homo sapiens, UniProt Q9NP59)", "pIC50": 6.00}
{"compound": "N#Cc1cccc(S(=O)(=O)Nc2cccc3cccnc23)c1", "test_system": "human ferroportin (Homo sapiens, UniProt Q9NP59)", "pIC50": 6.38}
{"compound": "Cc1cc(NS(=O)(=O)c2ccccc2)c2ncccc2c1", "test_system": "human ferroportin (Homo sapiens, UniProt Q9NP59)", "pIC50": 5.66}
{"compound": "CN1C(c2ccncc2F)c2ccc3cccnc3c2NS1(=O)=O (stereo not drawn)", "test_system": "human ferroportin (Homo sapiens, UniProt Q9NP59)", "pIC50": 5.80}
{"compound": "O=[N+]([O-])c1cc(F)ccc1S(=O)(=O)Nc1cccc2cccnc12", "test_system": "human ferroportin (Homo sapiens, UniProt Q9NP59)", "pIC50": 6.04}
{"compound": "O=S1(=O)Nc2c(cc(Cl)c3cccnc23)-c2cc(NC(CO)CO)ccc21", "test_system": "human ferroportin (Homo sapiens, UniProt Q9NP59)", "pIC50": 4.87}
{"compound": "O=S1(=O)Nc2c(ccc3cccnc23)-c2cc(Cl)ccc21", "test_system": "human ferroportin (Homo sapiens, UniProt Q9NP59)", "pIC50": 6.11}
{"compound": "CN1C(c2ccc(F)cc2)c2ccc3cccnc3c2NS1(=O)=O (stereo not drawn)", "test_system": "human ferroportin (Homo sapiens, UniProt Q9NP59)", "pIC50": 6.47}

----------
# test_system: human ferroportin (Homo sapiens)
# Construct: expressed in transfected cells
# procedure_text: ferroportin internalization assay (inhibition of hepcidin-induced internalization of Fpn)
# Type: cell-based
# conditions: MDCK-FPN-HaloTag cells, 100 nM hepcidin, overnight incubation; concentration range from 0.04 to 40 μM
pIC50: −log10 of the molar value.

{"compound": "N#Cc1ccc(S(=O)(=O)Nc2ccc(C(F)(F)F)c3cccnc23)cn1", "test_system": "human ferroportin (Homo sapiens)", "pIC50": 5.59}
{"compound": "O=S(=O)(Nc1cccc2cccnc12)c1cccc(OC(F)(F)F)c1", "test_system": "human ferroportin (Homo sapiens)", "pIC50": 5.92}
{"compound": "Cc1cc2c(cc1C)S(=O)(=O)Nc1c-2ccc2cccnc12", "test_system": "human ferroportin (Homo sapiens)", "pIC50": 5.40}
{"compound": "CN1C(c2ccc(F)c(CNCCN3CCOCC3)c2)c2ccc3cccnc3c2NS1(=O)=O (stereo not drawn)", "test_system": "human ferroportin (Homo sapiens)", "pIC50": 5.07}
{"compound": "O=S(=O)(Nc1cccc2cccnc12)Oc1ccccc1", "test_system": "human ferroportin (Homo sapiens)", "pIC50": 5.49}
{"compound": "CCC1c2ccc3cccnc3c2NS(=O)(=O)N1C (stereo not drawn)", "test_system": "human ferroportin (Homo sapiens)", "pIC50": 5.65}
{"compound": "O=S1(=O)Nc2c(ccc3cccnc23)-c2ccccc21 [Example 2, 5H-6-Thia-4,5-diaza-chrysene 6,6-dioxide]", "test_system": "human ferroportin (Homo sapiens)", "pIC50": 5.54}
{"compound": "O=S1(=O)Nc2c(ccc3cccnc23)-c2cccnc21", "test_system": "human ferroportin (Homo sapiens)", "pIC50": 5.21}
{"compound": "O=S(=O)(Nc1ccccc1)Nc1cccc2cccnc12 [Example 46, N-phenyl(quinolin-8-ylamino)sulfonamide]", "test_system": "human ferroportin (Homo sapiens)", "pIC50": 5.64}
{"compound": "O=S1(=O)Nc2c(ccc3cccnc23)C(c2ccc(F)cc2)N1 (stereo not drawn)", "test_system": "human ferroportin (Homo sapiens)", "pIC50": 5.56}
{"compound": "COc1cc(NS(=O)(=O)c2ccc(C(F)(F)F)cc2N)c2ncccc2c1", "test_system": "human ferroportin (Homo sapiens)", "pIC50": 6.00}
{"compound": "O=S1(=O)Nc2c(ccc3cccnc23)CN1c1ccccc1", "test_system": "human ferroportin (Homo sapiens)", "pIC50": 6.34}
{"compound": "O=S(=O)(Nc1cccc2cccnc12)c1cccc(Cl)c1", "test_system": "human ferroportin (Homo sapiens)", "pIC50": 6.01}
{"compound": "Cc1cnc2c(NS(=O)(=O)c3cccnc3)cccc2c1", "test_system": "human ferroportin (Homo sapiens)", "pIC50": 5.86}
{"compound": "CC(=O)Nc1ccccc1S(=O)(=O)Nc1cccc2cccnc12", "test_system": "human ferroportin (Homo sapiens)", "pIC50": 5.86}
